- Test system: Euphorbia heterophylla (EPHHL)
- protocol-details: Post-emergence efficacy, glasshouse
- Type: in vivo
- setup-conditions: Euphorbia heterophylla, post-emergence, 312 h; Application Rate 1000 g/Ha; evaluated after 13 days; 100=total damage to plant, 0=no damage to plant; read-out: Control of weed species after post-emergence application, EPHHL
metric: pest or weed control at 1000 g/ha (%)
Give bare numbers, in %.

# compound, pest or weed control at 1000 g/ha [%]
data = [
    ("COC(=O)C[n+]1cc(C(=O)[N-]S(C)(=O)=O)c2ccccc2n1", 30),
    ("COC(=O)CCS(=O)(=O)[N-]C(=O)c1c[n+](C)nc2ccccc12", 60),
]

// for each compound below, give its pest or weed control at 1000 g/ha
1. C[n+]1cc(P(C)(=O)O)c2ccccc2n1 [Compound A7]
2. CNS(=O)(=O)[N-]C(=O)c1c[n+](C)nc2ccccc12
3. C[n+]1cc(C(=O)[N-]S(=O)(=O)c2ccccc2)c2ccccc2n1

Reply:
[90, 70, 40]

----------
Give measured pest or weed control at 1000 g/ha for each item. Keep answers brief.
- System: Lolium perenne (LOLPE)
- protocol-details: Post-emergence efficacy, glasshouse
- Format: in vivo
- setup-conditions: Lolium perenne, post-emergence, 312 h; Application Rate 1000 g/Ha; evaluated after 13 days; 100=total damage to plant, 0=no damage to plant; read-out: Control of weed species after post-emergence application, LOLPE
A complete answer gives the number and then names the unit.

Consider the worked cases shown below.
# smiles-structure, pest or weed control at 1000 g/ha
data = [
    ("C[n+]1cc(SCC(=O)O)c2ccccc2n1", "10%"),
    ("COCC[n+]1cc(C(=O)[N-]S(C)(=O)=O)c2ccccc2n1", "20%"),
    ("COP(=O)([O-])c1c[n+](CCO)nc2ccccc12", "40%"),
    ("CC[n+]1cc(P(=O)([O-])O)c2ccccc2n1", "10%"),
]

Task item: State, in one line, measured pest or weed control at 1000 g/ha of C[n+]1cc(CCC(=O)O)c2ccccc2n1
Reply: 20%

----------
- System: Digitaria sanguinalis (DIGSA)
- protocol-details: Post-emergence efficacy, glasshouse
- Assay type: in vivo
- setup-conditions: Digitaria sanguinalis, post-emergence, 312 h; Application Rate 1000 g/Ha; evaluated after 13 days; 100=total damage to plant, 0=no damage to plant; read-out: Control of weed species after post-emergence application, DIGSA
Give measured pest or weed control at 1000 g/ha for each item. Keep answers brief.
A complete answer gives the number and then names the unit.

Consider the worked cases shown below.
# smiles-structure, pest or weed control at 1000 g/ha
rows = [
    ("O=C(O)c1c[n+](CCOS(=O)(=O)[O-])nc2ccccc12", "70%"),
    ("CNS(=O)(=O)[N-]C(=O)c1c[n+](C)nc2ccccc12", "70%"),
]

// for each molecule below, give its pest or weed control at 1000 g/ha
1. CS(=O)(=O)[N-]C(=O)c1c[n+](CC(=O)NS(C)(=O)=O)nc2ccccc12
2. CC[n+]1cc(P(=O)([O-])O)c2ccccc2n1
3. Cn1ncnc1NC(=O)c1c[n+](C)nc2ccccc12

Reply:
10%
90%
10%

----------
- System: Setaria faberi (SETFA)
- protocol-details: Post-emergence efficacy, glasshouse
- Assay type: in vivo
- setup-conditions: Setaria faberi, post-emergence, 312 h; Application Rate 1000 g/Ha; evaluated after 13 days; 100=total damage to plant, 0=no damage to plant; read-out: Control of weed species after post-emergence application, SETFA
metric: pest or weed control at 1000 g/ha (%)
Answers are plain numbers, in %.

Consider the worked cases shown below.
# molecule, study-target, observed-result
measured = [
    ("C[n+]1cc(C(=O)[N-]S(=O)(=O)c2ccc(Cl)s2)c2ccccc2n1 [Compound A39]", "Setaria faberi (SETFA)", 30),
    ("C[n+]1cc(C(=O)[N-]S(=O)(=O)C(C)(C)C)c2ccccc2n1 [Compound A36]", "Setaria faberi (SETFA)", 30),
    ("CC[n+]1cc(C(=O)[N-]S(C)(=O)=O)c2ccccc2n1 [Compound A22]", "Setaria faberi (SETFA)", 70),
    ("COC(=O)CCS(=O)(=O)[N-]C(=O)c1c[n+](C)nc2ccccc12 [Compound A42]", "Setaria faberi (SETFA)", 40),
    ("C[n+]1cc(P(C)(=O)O)c2ccccc2n1 [Compound A31]", "Setaria faberi (SETFA)", 90),
    ("C[n+]1cc(C(=O)[O-])c2ccccc2n1 [Compound A1]", "Setaria faberi (SETFA)", 30),
]

// for each molecule below, give its pest or weed control at 1000 g/ha
1. CC(C)P(=O)([O-])c1c[n+](C)nc2ccccc12 [Compound A46]
2. CCCS(=O)(=O)[N-]C(=O)c1c[n+](C)nc2ccccc12 [Compound A33]
3. C[C@@H](NC(=O)c1c[n+](C)nc2ccccc12)C(=O)O [Compound A9, 2,2,2-trifluoroacetate]

Reply:
1. 90
2. 40
3. 30

----------
Give measured pest or weed control at 1000 g/ha for each item. Keep answers brief.
- Test system: Digitaria sanguinalis (DIGSA)
- protocol-details: Post-emergence efficacy, glasshouse
- Assay type: in vivo
- setup-conditions: Digitaria sanguinalis, post-emergence, 312 h; Application Rate 1000 g/Ha; evaluated after 13 days; 100=total damage to plant, 0=no damage to plant; read-out: Control of weed species after post-emergence application, DIGSA
A complete answer gives the number and then names the unit.

Consider the worked cases shown below.
# compound, pest or weed control at 1000 g/ha
rows = [
    ("C[n+]1cc(C(=O)O)c2ccccc2n1 [Compound A29]", "30%"),
    ("C[n+]1cc(C(=O)Nc2nncs2)c2ccccc2n1", "0%"),
    ("C[n+]1cc(P(=O)([O-])O)c2ccccc2n1", "50%"),
    ("C[n+]1cc(C(=O)[N-]S(C)(=O)=O)c2ccccc2n1", "90%"),
    ("C[C@@H](NC(=O)c1c[n+](C)nc2ccccc12)C(=O)OC(C)(C)C", "20%"),
    ("CCOP(=O)(O)c1c[n+](CCO)nc2ccccc12", "90%"),
]

// for each compound below, give its pest or weed control at 1000 g/ha
1. CONC(=O)c1c[n+](C)nc2ccccc12 [Compound A4, 2,2,2-trifluoroacetate]
2. C[n+]1cc(C(=O)[O-])c2ccccc2n1
3. CS(=O)(=O)[N-]C(=O)c1c[n+](CC(F)F)nc2ccccc12
4. C[n+]1cc(C(=O)O)c2ccccc2n1 [Compound A3]

Reply:
1: 0%; 2: 90%; 3: 40%; 4: 50%

----------
Give measured pest or weed control at 1000 g/ha for each item. Keep answers brief.
- Tested on: Digitaria sanguinalis (DIGSA)
- protocol-details: Post-emergence efficacy, glasshouse
- Assay type: in vivo
- setup-conditions: Digitaria sanguinalis, post-emergence, 312 h; Application Rate 1000 g/Ha; evaluated after 13 days; 100=total damage to plant, 0=no damage to plant; read-out: Control of weed species after post-emergence application, DIGSA
Numbers only, in %.

Consider the worked cases shown below.
# compound, units-label, observed-result
records = [
    ("O=C(O)c1c[n+](CCO)nc2ccccc12", "%", 90),
    ("Cn1nnnc1[N-]C(=O)c1c[n+](C)nc2ccccc12", "%", 0),
    ("C[n+]1cc(S(=O)(=O)[O-])c2ccccc2n1 [Compound A6, 2-methylcinnolin-2-ium-4-sulfonate]", "%", 10),
    ("C[n+]1cc(P(C)(=O)O)c2ccccc2n1", "%", 100),
    ("CC(C)S(=O)(=O)[N-]C(=O)c1c[n+](C)nc2ccccc12", "%", 30),
    ("C[n+]1cc(CP(=O)([O-])O)c2ccccc2n1", "%", 20),
    ("CS(=O)(=O)[N-]C(=O)c1c[n+](CCO)nc2ccccc12", "%", 70),
    ("COC(=O)CCS(=O)(=O)[N-]C(=O)c1c[n+](C)nc2ccccc12", "%", 60),
]

// for each compound below, give its pest or weed control at 1000 g/ha
1. C[n+]1nc2ccccc2c(C(=O)[O-])c1-c1ccccc1
2. COP(=O)([O-])c1c[n+](CCO)nc2ccccc12
3. COP(=O)([O-])c1c[n+](CC(=O)NS(C)(=O)=O)nc2ccccc12
4. C[n+]1cc(C(=O)[N-]S(=O)(=O)C(F)(F)F)c2ccccc2n1
5. CC[n+]1cc(C(=O)[N-]S(C)(=O)=O)c2ccccc2n1
6. CCS(=O)(=O)[N-]C(=O)c1c[n+](C)nc2ccccc12
7. COCC[n+]1cc(C(=O)[N-]S(C)(=O)=O)c2ccccc2n1

Reply:
1: 90; 2: 100; 3: 70; 4: 0; 5: 80; 6: 80; 7: 40
